meta.source: PubChem BioAssay AID1159580

- Assay Protocol: chemical genetic growth profiling, strain panel (AID 1159580);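 further: tested at 20 µM; growth read once vehicle control cultures reached saturation at 30 °C; 1 = growth at the plate median or of vehicle wells; lower values mean less growth of the strain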
- Test Conditions: S. cerevisiae deletion strains, growth OD, locus YDR297W, strain sur2
Hit rate of the full screen: of about 5,500 compounds, about 2,000 (36%) were called active. Roughly 18% stayed inconclusive and do not appear here. No stated cut-off is given here; in the data, active means normalized growth mostly below about 0.91 (no sharp cut-off); inconclusive means no clear call, values can overlap the other calls; inactive means mostly above about 0.92. The list shows a part of the results.
Assign a class; possible classes are 1.0 = active, 0.0 = inactive

Look over these answered cases.
CCn1cc(C(=O)O)c(=O)c2cc(F)c(N3CCNCC3)nc21 | 0.0
O=C(O)CCCc1ccc(N(CCCl)CCCl)cc1 | 0.0
NCCS(=O)(=O)O | 0.0
C[n+]1c2cc(N)ccc2cc2ccc(N)cc21 | 1.0
OCC(O)CN1CCN(c2ccccc2)CC1 (centres undefined) | 0.0
CC1CCc2cc(F)cc3c(=O)c(C(=O)O)cn1c23 (centres undefined) | 0.0
O=C(O)CCCc1ccccc1 | 0.0
C[C@H]1COc2c(N3CCN(C)CC3)c(F)cc3c(=O)c(C(=O)O)cn1c23 | 0.0
COc1ccc(C(=O)O)cc1OC | 0.0
CN(C)CCCC1(c2ccc(F)cc2)OCc2cc(C#N)ccc21 (centres undefined) | 0.0

[in] Identify the outcome logged in this assay for the molecule shown: O=C(c1ccc(OCCN2CCCCC2)cc1)c1c(-c2ccc(O)cc2)sc2cc(O)ccc12
[out] 0.0

[in] Next entry: CCn1cc(C(=O)O)c(=O)c2cc(F)c(N3CCNC(C)C3)c(F)c21 (centres undefined)
[out] 0.0

[in] Consider next the molecule CO/N=C1/CN(c2nc3c(cc2F)c(=O)c(C(=O)O)cn3C2CC2)CC1CN (centres undefined) in the same way.
[out] 0.0

[in] Note, next up: COc1cc([C@@H]2c3cc4c(cc3[C@@H](O)C3COC(=O)C32)OCO4)cc(OC)c1O (some centres undefined)
[out] 0.0

[in] Queued: C[C@]12CCC(=O)C=C1C=CC1C2CC[C@@]2(C)C1CC[C@@]21CCC(=O)O1 (some centres undefined)
[out] 0.0

[in] Another molecule: NCCCS(=O)(=O)O
[out] 0.0

[in] And then CCC(C)C(=O)O[C@@H]1C[C@@]2(C)[C@H](c3ccoc3)OC(=O)CC23OC2(C)OC34[C@H](OC(=O)C(C)C)[C@@]3(O)[C@@H](OC(=O)C5(C)OC5C)[C@@]5(C)C[C@]3(O)[C@@](C)([C@H]5CC(=O)OC)C14O2 (some centres undefined) , what is it?
[out] 0.0

[in] Another: N[C@@H](Cc1ccc(N(CCCl)CCCl)cc1)C(=O)O
[out] 0.0

[in] How about this molecule: C[C@]12CCC(=O)C=C1C=CC1C2CC[C@@]2(C)C1CC[C@@]2(O)CCC(=O)O (some centres undefined)
[out] 0.0

* * *

- Assay Protocol: chemical genetic growth profiling, strain panel (AID 1159580)
- Test Conditions: S. cerevisiae deletion strains, growth OD, locus YBR009C, strain hhf1, hits give low values
About 2,000 (36%) of roughly 5,500 compounds were called active. About 18% were inconclusive and are not listed. Some of the results follow.
Reported Endpoint: normalized growth
Write no unit; give the number alone.

COc1ccc(C(c2ccc(OC)cc2)C(Cl)(Cl)Cl)cc1 | 1.01
CC(=O)O[C@H]1C[C@@H](OC(C)=O)C(C)(C)C2CC(=O)[C@]3(C)C(CC[C@@]4(C)[C@H](C(=O)O)OC(=O)C5OC543)[C@]21C (stereo partly specified) | 0.988
CN1CC(=O)N=C1N | 1.05
COc1ccc2c(c1)OC/C(=C/c1ccc(OC)c(OC)c1)C2=O | 0.803
Cc1ccc(C(=O)Nc2ccc(S(=O)(=O)O)c3cc(S(=O)(=O)O)cc(S(=O)(=O)O)c23)cc1NC(=O)c1cccc(NC(=O)Nc2cccc(C(=O)Nc3cc(C(=O)Nc4ccc(S(=O)(=O)O)c5cc(S(=O)(=O)O)cc(S(=O)(=O)O)c45)ccc3C)c2)c1 | 0.98
C[n+]1c2cc(N)ccc2cc2ccc(N)cc21 | 0.356

[in] For the compound CCC(C)C(=O)O[C@@H]1C[C@@]2(C)[C@H](c3ccoc3)OC(=O)CC23OC2(C)OC34[C@H](OC(=O)C(C)C)[C@@]3(O)[C@@H](OC(=O)C5(C)OC5C)[C@@]5(C)C[C@]3(O)[C@@](C)([C@H]5CC(=O)OC)C14O2 (stereo partly specified) , what normalized growth is on record?
[out] 1.02

[in] Next compound: CCN1CCCC(OC(=O)C(c2ccccc2)c2ccccc2)C1 (stereo unspecified)
[out] 0.992

[in] Repeat with Cc1ncc(CNC(=O)N(CCCl)N=O)c(N)n1
[out] 0.992

[in] Lookup COC(=O)[C@@H]1OC(=O)C2OC23[C@@]1(C)CCC1[C@]2(C)C(C[C@H](O)[C@]13C)C(C)(C)[C@H](OC(C)=O)C[C@@H]2OC(C)=O (stereo partly specified)
[out] 1.03

[in] Please give the result for O=C1NCC2(CCN(CCc3ccccc3)CC2)O1 too.
[out] 0.992

* * *

- Assay Protocol: chemical genetic growth profiling, strain panel (AID 1159580)
- Test Conditions: S. cerevisiae deletion strains, growth OD, locus YBR229C, strain ROT2, hits give low values
The campaign covered roughly 5,500 compounds. About 2,000 (36%) were called active. About 18% were inconclusive and are not listed. This is one part of the list.
Friendly reminder: normalized growth below 1 is fulfilled, at or above is not fulfilled.

CN1CC(CO)=C[C@@H]2c3cccc4[nH]cc(c34)C[C@H]21 | fulfilled
Cc1ncc(CNC(=O)N(CCCl)N=O)c(N)n1 | not fulfilled

Here is the next item to consider.
[in] Identify whether the compound O=C(NNC(=S)Nc1cccc(Cl)c1)C1CC1 records normalized growth below 1.
[out] fulfilled

* * *

Catalogue of normalized growth readings, one per entry.
- Assay Protocol: chemical genetic growth profiling, strain panel (AID 1159580);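 further: tested at 20 µM; growth read once vehicle control cultures reached saturation at 30 °C; 1 = growth at the plate median or of vehicle wells; lower values mean less growth of the strain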
- Test Conditions: S. cerevisiae deletion strains, growth OD, locus YIL066C, strain RNR3, hits give low values
Hit rate of the full screen: of about 5,500 compounds, about 2,000 (36%) were called active. Inconclusive results (about 18%) are left out. This is one part of the list.
// no unit string in output, number only

As a guide, the following entries are already answered.
CN(C)CCOC(c1ccc(Cl)cc1)c1ccccn1 (stereo unspecified) | 0.957
Cc1ccccc1C(OCCN(C)C)c1ccccc1 (stereo unspecified) | 1.01
Clc1ccc(C(OCCN2CCCCC2)c2ccccc2)cc1 (stereo unspecified) | 0.988
C[C@]12CCC(=O)C=C1C=CC1C2CC[C@@]2(C)C1CC[C@@]2(O)CCC(=O)O (stereo partly specified) | 0.982
O=C1NCC2(CCN(CCc3ccccc3)CC2)O1 | 1.01

[in] Quick check: normalized growth of C[C@]12CCC(=O)C=C1C=CC1C2CC[C@@]2(C)C1CC[C@@]21CCC(=O)O1 (stereo partly specified) ?
[out] 0.95

* * *

- Assay Protocol: chemical genetic growth profiling, strain panel (AID 1159580);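 further: tested at 20 µM; growth read once vehicle control cultures reached saturation at 30 °C; 1 = growth at the plate median or of vehicle wells; lower values mean less growth of the strain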
- Test Conditions: S. cerevisiae deletion strains, growth OD, locus YER110C, hits give low values
About 2,000 (36%) of roughly 5,500 compounds were called active. About 18% were inconclusive and are not listed. The list shows a part of the results.
Examples of molecules with documented normalized growth follow.
Just the number, please, no unit attached.

Some solved entries appear below for comparison.
CN1CCC(OC(c2ccccc2)c2ccccc2)CC1 | 0.972
CCC(C)C(=O)OC1CC2(C)C(c3ccoc3)OC(=O)CC23OC2(C)OC34C(OC(=O)C(C)C)C3(O)C(OC(=O)C5(C)OC5C)C5(C)CC3(O)C(C)(C5C(=O)OC)C14O2 (stereo unspecified) | 1.02

[in] Item under review: CNC(=O)O/N=C(\C)SC . Reported normalized growth?
[out] 0.977

[in] Also need Cc1ccc(S(=O)(=O)NC(=O)NN2CCCCCC2)cc1 , thanks.
[out] 0.988

[in] What about COc1ccc(C(CN(C)C)C2(O)CCCCC2)cc1 (stereo unspecified) ?
[out] 0.99

* * *

- Assay Protocol: chemical genetic growth profiling, strain panel (AID 1159580);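 further: tested at 20 µM; growth read once vehicle control cultures reached saturation at 30 °C; 1 = growth at the plate median or of vehicle wells; lower values mean less growth of the strain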
- Test Conditions: S. cerevisiae deletion strains, growth OD, locus YDL074C, strain BRE1, hits give low values
Out of some 5,500 compounds screened, about 2,000 (36%) were called active. Inconclusive results (about 18%) are left out. Some of the results follow.
The following molecules are listed with their measured normalized growth values.
Number only, please.

Consider the reported normalized growth for these molecules:
C=CCc1ccc(O)c(OC)c1 | 0.967
NC(=O)c1ccc[n+]([C@@H]2O[C@H](COP(=O)([O-])OP(=O)(O)OC[C@H]3O[C@@H](n4cnc5c(N)ncnc54)[C@H](OP(=O)(O)O)[C@@H]3O)[C@@H](O)[C@H]2O)c1 | 1.02
C[C@@H]1CC(Cl)CC[C@H]1C(=O)OC(C)(C)C (stereo partly specified) | 0.948
OCC(O)CN1CCN(c2ccccc2)CC1 (stereo unspecified) | 0.984

[in] Param item = C[C@H]1COc2c(N3CCN(C)CC3)c(F)cc3c(=O)c(C(=O)O)cn1c23 ; retrieve measured normalized growth.
[out] 1.01

[in] Input O=C1C(Cl)=C(Cl)C(=O)C(Cl)=C1Cl
[out] 0.531

[in] And what about the molecule CCn1cc(C(=O)O)c(=O)c2cc(F)c(N3CCNC(C)C3)c(F)c21 (stereo unspecified) ?
[out] 1.02

[in] Same question, CN1C2CCC1CC(OC(c1ccccc1)c1ccccc1N)C2 (stereo unspecified) this time
[out] 1

[in] Lookup COc1c(N2CCNC(C)C2)c(F)cc2c(=O)c(C(=O)O)cn(C3CC3)c12 (stereo unspecified)
[out] 0.965

[in] Same question, CN1C2CCC1CC(OC(c1ccccc1)c1ccccc1)C2 (stereo unspecified) this time
[out] 0.665

[in] How about COc1ccc(C(=O)O)cc1OC ?
[out] 1.17
